Tested on: Plasmodium berghei
experimentNotes: Antimalarial activity against Plasmodium berghei infected in mouse assessed as mean survival days at 30 mg/kg, po administered for 4 times starting from 4 to 72 hrs and monitered for 30 days (reference value: 4 days)
Type: functional
statedConditions: time 30 day
Each entry below carries its reported MSD.
Numbers only here, please. The scale is days.

A selection of reference data follows.
INSERT INTO results (compound, endpointvalue) VALUES
  ('N/C(CC(O)c1cc2c(F)cc(F)cc2c2cc(C(F)(F)F)ccc12)=N\N=C\c1ccc(F)cc1 (stereo not given)', 25),
  ('C[C@H]1[C@H](OC(=O)CCC(=O)O)O[C@@H]2O[C@@]3(C)CC[C@H]4[C@H](C)CC[C@@H]1[C@@]24OO3 [ARTESUNATE]', 9),
  ('COc1ccc(/N=C(\N)CC(O)c2cc3c(F)cc(F)cc3c3cc(C(F)(F)F)ccc23)cc1.Cl (stereo not given)', 17);

The record that follows has no MSD shown yet.
Task item: Fill blank: measured MSD of the compound CCN(CC)CCCC(C)Nc1ccnc2cc(Cl)ccc12 (stereo not given) is ____.
Reply: 21
